- method: NCI Yeast Anticancer Drug Screen. Data for the mec2-1 strain (AID 157)
- conditions: S. cerevisiae mec2-1 strain, at 50.0 µM, hits give high values
About 79,000 compounds went through this panel and 15% of them were active in at least one assay; those are over-represented in the sample as a whole.
test readout: growth inhibition (%)
Return type: number; implicit unit %.

Requested read-out: growth inhibition. Entry: Cc1ccc2ccc(-c3cc4ccccc4s3)nc2c1
-9.75

Requested read-out: growth inhibition. Entry: CC(O)c1cccc(NC(=O)Nc2ccc(Cl)c(Cl)c2)c1 (configuration not stated)
83.4

Requested read-out: growth inhibition. Entry: C#CCOC(=O)[C@@H](C)c1ccc2cc(OC)ccc2c1
4.25

Requested read-out: growth inhibition. Entry: NCCNc1ncnc2ccc(Cl)cc12
-13.1

Requested read-out: growth inhibition. Entry: c1ccc2c3c(ccc2c1)OCCOCCOc1ccc2ccccc2c1-3
84.8

Requested read-out: growth inhibition. Entry: ONc1ccccc1
6.1

Requested read-out: growth inhibition. Entry: N/N=C(/Cc1ccccc1)NNO
13.8

Requested read-out: growth inhibition. Entry: NCC(O)CN
-0.75

Requested read-out: growth inhibition. Entry: COc1ccc(/C=C2\N=C(c3cccc(Cl)c3)OC2=O)cc1OC
4.25

Requested read-out: growth inhibition. Entry: Cn1c(=O)c2[nH]c(/N=N/N3CCN(CCO)CC3)nc2n(C)c1=O
-14.8

Requested read-out: growth inhibition. Entry: COc1ccc2[nH]c3c(c2c1)[C@H](c1ccccc1)C[C@@H]1C(=O)N(c2ccccc2)C(=O)[C@H]31
-6.65

Requested read-out: growth inhibition. Entry: CSC(C(=O)O)c1cc(-c2c(Cl)cccc2Cl)no1 (configuration not stated)
23.8

Origin of measurements: PubChem BioAssay (NCI)
